This collection of values is drawn from patent US8299074B2.

tested on: BEAS2B cells; assay: Poly I:C-induced ICAM-1 induction in BEAS2B cells; format: cell-based; details: Homo sapiens, BEAS-2B; Table 2; read-out: BEAS2B (polyIC) ICAM1 IC50
pIC50: −log10 of the molar value.
property: pIC50

INSERT INTO results (compound, property, assay_value) VALUES
  ('COCC(=O)Nc1cc(Oc2ccc(NC(=O)Nc3cc(C(C)(C)CO)nn3-c3ccc(C)cc3)c3ccccc23)ccn1 [Example 9]', 'pIC50', '> 5.30'),
  ('Cc1ccc(-n2nc(C(C)(C)C)cc2NC(=O)Nc2ccc(Oc3ccnc(NC(=O)CO)c3)c3ccccc23)cc1 [Example 5]', 'pIC50', '> 8.00'),
  ('COCCC(=O)Nc1cc(Oc2ccc(NC(=O)Nc3cc(C(C)(C)C)nn3-c3ccc(C)cc3)c3ccccc23)ccn1 [Example 4]', 'pIC50', '> 8.00');

Each compound below has a recorded value; state its pIC50.
1. Cc1ccc(-n2nc(C(C)(C)C)cc2NC(=O)Nc2ccc(Oc3ccnc(NC(=O)CN4CCOCC4)c3)c3ccccc23)cc1 [Example 11]
2. COCC(=O)Nc1cc(Oc2ccc(NC(=O)Nc3cc(C(C)(C)C)nn3-c3ccc(C)cc3)c(C)c2C)ccn1 [Example 26]
3. Cc1ccc(-n2nc(C(C)(C)C)cc2NC(=O)Nc2ccc(Oc3ccnc(NC(=O)C4CCOCC4)c3)c3ccccc23)cc1 [Example 2]
4. COCC(=O)Nc1cc(Oc2ccc(NC(=O)Nc3cc(C(C)(C)C)nn3-c3ccc(C)cc3)cc2)ccn1 [Example 22]
5. CCc1cc(NC(=O)Nc2ccc(Oc3ccnc(NC(=O)COC)c3)c3ccccc23)n(-c2ccc(C)cc2)n1 [Example 7]

Reply:
> 5.30
> 8.00
> 8.00
> 5.30
> 5.30

Each compound below has a recorded value; state its pIC50.
1. COCC(=O)Nc1cc(Oc2ccc(NC(=O)Nc3cc(C(C)(C)C)nn3-c3ccc(C)cc3)cc2C)ccn1 [Example 23]
2. COCC(=O)Nc1cc(Oc2ccc(NC(=O)Nc3cc(C(C)(C)C)nn3-c3ccc(C)cc3)c3ccccc23)ccn1 [Example 8]
3. Cc1ccc(-n2nc(C(C)(C)C)cc2NC(=O)Nc2ccc(Oc3ccnc(NC(=O)CNC(=O)N4CCOCC4)c3)c3ccccc23)cc1 [Example 20]
4. COCC(=O)Nc1cc(Oc2ccc(NC(=O)Nc3cc(C(C)C)nn3-c3ccc(C)cc3)c3ccccc23)ccn1 [Example 6]
5. Cc1ccc(-n2nc(C(C)(C)C)cc2NC(=O)Nc2ccc(Oc3ccnc(NC(=O)CNC(=O)CCN4CCOCC4)c3)c3ccccc23)cc1 [Example 19]

Reply:
> 5.30
> 8.00
> 5.30
> 5.30
> 8.00

Each compound below has a recorded value; state its pIC50.
1. CSCC(=O)Nc1cc(Oc2ccc(NC(=O)Nc3cc(C(C)(C)C)nn3-c3ccc(C)cc3)c3ccccc23)ccn1 [Example 3]
2. [2H]c1c([2H])c(C([2H])([2H])[2H])c([2H])c([2H])c1-n1nc(C(C)(C)C)cc1NC(=O)Nc1ccc(Oc2ccnc(NC(=O)COC)c2)c2ccccc12 [Example 10]

Reply:
1. > 5.30
2. > 8.00

Each compound below has a recorded value; state its pIC50.
1. Cc1ccc(-n2nc(C(C)(C)C)cc2NC(=O)Nc2ccc(Oc3ccnc(NC(=O)CNC(N)=O)c3)c3ccccc23)cc1 [Example 14]
2. COCCNCC(=O)Nc1cc(Oc2ccc(NC(=O)Nc3cc(C(C)(C)C)nn3-c3ccc(C)cc3)c3ccccc23)ccn1 [Example 13]

Reply:
1. > 5.30
2. > 8.00

---

test system: Differentiated U937 cells; assay: MTT assay (cell viability); type: cell-based, human; settings: Table 3, second MTT column; loss of cell viability at 1 μg/ml
property: DU937 (cell viability) MTT assay 4 h

Field: example entries. Status: answers known.
INSERT INTO assay_data (smiles_representation, property, assay_value) VALUES
  ('Cc1ccc(-n2nc(C(C)(C)C)cc2NC(=O)Nc2ccc(Oc3ccnc(NC(=O)NC4CC4)c3)c3ccccc23)cc1', 'DU937 (cell viability) MTT assay 4 h', '− (<=30%)'),
  ('Cc1ccc(-n2nc(C(C)(C)C)cc2NC(=O)Nc2ccc(Oc3ccnc(NC(=O)NC4CCN(C)CC4)c3)c3ccccc23)cc1', 'DU937 (cell viability) MTT assay 4 h', '+ (>30%)'),
  ('Cc1ccc(-n2nc(C(C)(C)C)cc2NC(=O)Nc2ccc(Oc3ccnc(NC(=O)N4CCC(O)CC4)c3)c3ccccc23)cc1', 'DU937 (cell viability) MTT assay 4 h', '+ (>30%)'),
  ('Cc1ccc(-n2nc(C(C)(C)C)cc2NC(=O)Nc2ccc(Oc3ccnc(NC(=O)NCCCn4ccnc4)c3)c3ccccc23)cc1', 'DU937 (cell viability) MTT assay 4 h', '− (<=30%)');

Each molecule below has a recorded value; state its DU937 (cell viability) MTT assay 4 h.
1. Cc1ccc(-n2nc(C(C)(C)C)cc2NC(=O)Nc2ccc(Oc3ccnc(NC(N)=O)c3)c3ccccc23)cc1
2. Cc1ccc(-n2nc(C(C)(C)C)cc2NC(=O)Nc2ccc(Oc3ccnc(NC(=O)NC4CCN(S(C)(=O)=O)CC4)c3)c3ccccc23)cc1
3. Cc1ccc(-n2nc(C(C)(C)C)cc2NC(=O)Nc2ccc(Oc3ccnc(NC(=O)NCCCCN4CCOCC4)c3)c3ccccc23)cc1
4. Cc1ccc(-n2nc(C(C)(C)C)cc2NC(=O)Nc2ccc(Oc3ccnc(NC(=O)N(C)C)c3)c3ccccc23)cc1

Reply:
1: − (<=30%); 2: + (>30%); 3: − (<=30%); 4: − (<=30%)

Task item: Any idea what DU937 (cell viability) MTT assay 4 h came out for Cc1ccc(-n2nc(C(C)(C)C)cc2NC(=O)Nc2ccc(Oc3ccnc(NC(=O)N4CCOCC4)c3)c3ccccc23)cc1 on Differentiated U937 cells?
Reply: − (<=30%)
